meta.source: patent US9440957B2

Let's look at some compounds and their measured IC50.
# measured-on: EGFR(L858R/T790M) (Homo sapiens, UniProt P00533, L858R/T790M)
# Construct: purchased from Carna (GST-a.a. 669-1210)
# protocol-notes: EGFR biochemical assay (HTRF), IC50 determinations
# protocol-conditions: EGFR (L858R/T790M) with 90 min pre-incubation; read-out: IC50 (μM) Column B

{"columns": ["compound", "IC50"],
 "data": [
  ["Cc1cccc2nc(NC(=O)c3ccc(Cl)nc3)n([C@@H]3CCCCN(C(=O)/C=C/CN(C)C)C3)c12 [Example 17-77]", "< 0.001 µM"],
  ["Cc1ncc(C(=O)Nc2nc3cccc(C)c3n2C2CCCCN(C(=O)/C=C/CN(C)C)C2)s1 (single isomer, unassigned) [Example 21-8A]", "0.033 µM"],
  ["C=CC(=O)N1CCCC[C@@H](n2c(NC(=O)c3ccnc(C)c3)nc3cc(CN4CCC4)cc(C)c32)C1 [Example 17-145]", "< 0.001 µM"]
]}

Give the reported value of IC50 for this record: Cc1cc(C(=O)Nc2nc3cccc(C)c3n2[C@@H]2CCCCN(C(=O)/C=C/CN(C)C)C2)ccn1 [Example 7]
< 0.001 µM

Report IC50 for COC1CN(C/C=C/C(=O)N2CCCC[C@@H](n3c(NC(=O)c4ccnc(C)c4)nc4cccc(Cl)c43)C2)C1 [Example 3-14]
< 0.001 µM

Give recorded IC50. Cc1cccc2nc(NC(=O)c3cnc(Cl)c(Cl)c3)n([C@@H]3CCCCN(C(=O)/C=C/CN(C)C)C3)c12 [Example 17-78]
< 0.001 µM

# return recorded IC50 for input C=CC(=O)N1CCNCC(n2c(NC(=O)c3ccnc(C)c3)nc3cccc(Cl)c32)C1 (stereo not shown) [Example 13]
0.113 µM

====

# measured-on: human EGFR L858R/T790M (NIH/3T3 cells) (Homo sapiens, UniProt P00533, L858R/T790M)
# Sequence (P00533 25-1210 T790M/L858R): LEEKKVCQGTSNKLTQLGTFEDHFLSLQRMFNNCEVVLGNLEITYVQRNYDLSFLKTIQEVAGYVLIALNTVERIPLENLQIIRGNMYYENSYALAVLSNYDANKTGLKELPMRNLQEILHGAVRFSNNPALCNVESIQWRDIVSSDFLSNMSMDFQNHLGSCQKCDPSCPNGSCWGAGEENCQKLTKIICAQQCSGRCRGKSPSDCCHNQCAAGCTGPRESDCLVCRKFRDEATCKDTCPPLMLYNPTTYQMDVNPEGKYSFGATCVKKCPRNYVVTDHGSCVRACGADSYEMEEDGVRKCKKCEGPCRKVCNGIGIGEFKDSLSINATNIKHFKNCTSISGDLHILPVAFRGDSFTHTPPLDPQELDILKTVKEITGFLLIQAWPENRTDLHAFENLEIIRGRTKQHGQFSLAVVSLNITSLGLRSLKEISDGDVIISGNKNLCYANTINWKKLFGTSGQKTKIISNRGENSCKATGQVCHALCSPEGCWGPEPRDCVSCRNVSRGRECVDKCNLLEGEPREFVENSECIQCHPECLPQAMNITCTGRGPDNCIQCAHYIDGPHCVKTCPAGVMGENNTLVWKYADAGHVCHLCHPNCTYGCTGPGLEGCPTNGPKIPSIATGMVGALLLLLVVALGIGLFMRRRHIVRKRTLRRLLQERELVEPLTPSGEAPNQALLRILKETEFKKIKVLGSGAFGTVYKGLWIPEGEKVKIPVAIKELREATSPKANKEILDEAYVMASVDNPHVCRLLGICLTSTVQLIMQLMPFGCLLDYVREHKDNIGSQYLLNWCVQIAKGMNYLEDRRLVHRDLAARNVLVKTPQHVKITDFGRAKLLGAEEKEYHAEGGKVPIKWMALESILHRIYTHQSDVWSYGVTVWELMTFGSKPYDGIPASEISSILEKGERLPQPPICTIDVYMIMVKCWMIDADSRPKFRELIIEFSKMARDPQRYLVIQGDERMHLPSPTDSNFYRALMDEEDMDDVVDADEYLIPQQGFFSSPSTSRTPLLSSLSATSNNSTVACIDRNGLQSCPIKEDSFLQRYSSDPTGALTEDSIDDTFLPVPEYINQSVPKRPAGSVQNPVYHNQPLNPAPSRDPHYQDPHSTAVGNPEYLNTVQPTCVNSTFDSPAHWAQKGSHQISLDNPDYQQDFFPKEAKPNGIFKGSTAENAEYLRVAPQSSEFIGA
# protocol-notes: EGFR target modulation in engineered NIH/3T3 cell lines (phospho-EGFR Y1068 AlphaLISA), EGFR L858R/T790M
# Type: cell-based
# protocol-conditions: engineered NIH/3T3 cells, read-out: NIH3T3 IC50 (μM) EGFR (L858R/T790M)
# Protocol: EGFR Target Modulation in Engineered NIH/3T3 Cell Lines Tissue Culture. The cells were harvested with 0.05% Trypsin/EDTA (Hyclone #SH30236.01), re-suspended in 5% FBS/DMEM Pen/Strep without Puromycin and plated at 9,000 cells per well in 50 μl of media in a 384-well black plate with clear bottoms (Greiner #789068G). […] With these parameters, the IC50's for each compound in each cell line was calculated using non-linear curve fitting analysis.
# IC50 per entry
Record the value in µM, omitting the unit from your answer.

Sample records with IC50:
{"columns": ["molecule", "measured-on", "test-readout", "measured-result"],
 "data": [
  ["C=CC(=O)N1CCCC(n2c(NC(=O)c3cccc(C(F)(F)F)c3)nc3c2CCN(C(C)=O)C3)C1 (stereo not shown) [Example 17-169]", "human EGFR L858R/T790M (NIH/3T3 cells) (Homo sapiens, UniProt P00533, L858R/T790M)", "IC50", 0.14],
  ["Cc1cccc2nc(NC(=O)c3ccnc(N4CCCCC4)c3)n(C3CCCCN(C(=O)/C=C/CN(C)C)C3)c12 (stereo not shown) [Example 17-57]", "human EGFR L858R/T790M (NIH/3T3 cells) (Homo sapiens, UniProt P00533, L858R/T790M)", "IC50", 0.002],
  ["C=CC(=O)N1CCCC[C@@H](n2c(NC(=O)c3ccccc3)nc3cc(COCCOC)cc(C)c32)C1 [Example 17-128]", "human EGFR L858R/T790M (NIH/3T3 cells) (Homo sapiens, UniProt P00533, L858R/T790M)", "IC50", 0.002],
  ["Cc1cccc2nc(NC(=O)c3ccnc(C(C)(C)C)c3)n(C3CCCCN(C(=O)/C=C/CN(C)C)C3)c12 (stereo not shown) [Example 17-61]", "human EGFR L858R/T790M (NIH/3T3 cells) (Homo sapiens, UniProt P00533, L858R/T790M)", "IC50", 0.003],
  ["Cc1cc(C(=O)Nc2nc3cccc(C)c3n2[C@@H]2CCCCN(C(=O)/C=C/CN(C)C)C2)cc(C)n1 [Example 17-72]", "human EGFR L858R/T790M (NIH/3T3 cells) (Homo sapiens, UniProt P00533, L858R/T790M)", "IC50", 0.001]
]}

Quote IC50 reported for Cc1cc(C(=O)Nc2nc3cccc(Cl)c3n2[C@@H]2CCCCN(C(=O)/C=C/CN3CC[C@@H](O)C3)C2)ccn1 [Example 3-6] please.
0.032

Read the entry C=CC(=O)N1CCCC[C@@H](n2c(NC(=O)c3ccccc3)nc3cccc(CN(C)C)c32)C1 [Example 17-129] and write its reported IC50.
0.002

====

# measured-on: HaCaT (EGFR WT) (Homo sapiens, UniProt P00533)
# Sequence (P00533 25-1210): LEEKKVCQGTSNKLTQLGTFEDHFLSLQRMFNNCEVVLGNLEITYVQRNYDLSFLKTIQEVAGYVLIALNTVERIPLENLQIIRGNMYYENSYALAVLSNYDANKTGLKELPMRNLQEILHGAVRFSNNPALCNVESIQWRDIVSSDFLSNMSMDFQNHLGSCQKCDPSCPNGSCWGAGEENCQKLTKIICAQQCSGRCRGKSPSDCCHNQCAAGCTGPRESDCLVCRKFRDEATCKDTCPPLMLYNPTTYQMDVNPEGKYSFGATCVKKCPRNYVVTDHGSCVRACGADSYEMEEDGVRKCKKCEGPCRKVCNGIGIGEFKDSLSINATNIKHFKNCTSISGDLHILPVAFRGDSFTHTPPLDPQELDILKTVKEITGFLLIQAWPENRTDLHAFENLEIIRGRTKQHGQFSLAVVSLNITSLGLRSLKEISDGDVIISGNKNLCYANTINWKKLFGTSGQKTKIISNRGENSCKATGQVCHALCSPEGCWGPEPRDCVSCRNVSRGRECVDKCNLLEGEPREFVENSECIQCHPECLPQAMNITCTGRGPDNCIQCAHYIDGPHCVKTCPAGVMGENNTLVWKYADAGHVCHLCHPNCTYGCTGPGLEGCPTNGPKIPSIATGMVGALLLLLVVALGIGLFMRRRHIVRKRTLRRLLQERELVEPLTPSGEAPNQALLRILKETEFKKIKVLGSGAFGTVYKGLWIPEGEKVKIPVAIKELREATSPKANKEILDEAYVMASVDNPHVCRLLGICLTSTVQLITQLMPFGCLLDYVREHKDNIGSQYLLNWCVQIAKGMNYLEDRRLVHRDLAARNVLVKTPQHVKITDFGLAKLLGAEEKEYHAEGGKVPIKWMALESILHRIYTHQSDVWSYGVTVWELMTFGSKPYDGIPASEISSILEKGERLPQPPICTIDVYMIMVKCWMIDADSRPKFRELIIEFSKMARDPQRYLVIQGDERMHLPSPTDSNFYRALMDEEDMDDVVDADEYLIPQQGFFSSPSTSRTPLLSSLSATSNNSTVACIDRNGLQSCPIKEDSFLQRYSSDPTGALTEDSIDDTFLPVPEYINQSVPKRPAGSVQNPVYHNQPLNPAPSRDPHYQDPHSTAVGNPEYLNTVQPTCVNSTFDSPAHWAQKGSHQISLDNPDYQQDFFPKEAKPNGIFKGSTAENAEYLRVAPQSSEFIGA
# protocol-notes: EGFR target modulation in HaCaT (EGFR-WT) cell line (phospho-EGFR Y1173 ELISA)
# Assay type: cell-based
# protocol-conditions: value in parentheses
pIC50: −log10 of the molar value.
Known pIC50 of a selection of compounds

Here is how some compounds turned out for pIC50.
{"columns": ["compound", "pIC50"],
 "data": [
  ["CN(C)C/C=C/C(=O)N1CCCCC(n2c(NC(=O)c3ccnc(P(C)(C)=O)c3)nc3cccc(Cl)c32)C1 (single isomer, unassigned) [Example 21-10B]", 5.22],
  ["Cc1cc(C(=O)Nc2nc3cccc(Cl)c3n2[C@@H]2CCCCN(C(=O)/C=C/CN(C)C(=O)OC(C)(C)C)C2)ccn1", "< 5.00"]
]}

Continue with the compound presented below.
Using the record for CN(C)C/C=C/C(=O)N1CCCCC(n2c(NC(=O)c3ccnc(P(C)(C)=O)c3)nc3cccc(Cl)c32)C1 (single isomer, unassigned) [Example 21-10A] , state its measured pIC50.
< 5.00

====

# measured-on: human EGFR L858R (NIH/3T3 cells) (Homo sapiens, UniProt P00533, L858R)
# Sequence (P00533 25-1210 L858R): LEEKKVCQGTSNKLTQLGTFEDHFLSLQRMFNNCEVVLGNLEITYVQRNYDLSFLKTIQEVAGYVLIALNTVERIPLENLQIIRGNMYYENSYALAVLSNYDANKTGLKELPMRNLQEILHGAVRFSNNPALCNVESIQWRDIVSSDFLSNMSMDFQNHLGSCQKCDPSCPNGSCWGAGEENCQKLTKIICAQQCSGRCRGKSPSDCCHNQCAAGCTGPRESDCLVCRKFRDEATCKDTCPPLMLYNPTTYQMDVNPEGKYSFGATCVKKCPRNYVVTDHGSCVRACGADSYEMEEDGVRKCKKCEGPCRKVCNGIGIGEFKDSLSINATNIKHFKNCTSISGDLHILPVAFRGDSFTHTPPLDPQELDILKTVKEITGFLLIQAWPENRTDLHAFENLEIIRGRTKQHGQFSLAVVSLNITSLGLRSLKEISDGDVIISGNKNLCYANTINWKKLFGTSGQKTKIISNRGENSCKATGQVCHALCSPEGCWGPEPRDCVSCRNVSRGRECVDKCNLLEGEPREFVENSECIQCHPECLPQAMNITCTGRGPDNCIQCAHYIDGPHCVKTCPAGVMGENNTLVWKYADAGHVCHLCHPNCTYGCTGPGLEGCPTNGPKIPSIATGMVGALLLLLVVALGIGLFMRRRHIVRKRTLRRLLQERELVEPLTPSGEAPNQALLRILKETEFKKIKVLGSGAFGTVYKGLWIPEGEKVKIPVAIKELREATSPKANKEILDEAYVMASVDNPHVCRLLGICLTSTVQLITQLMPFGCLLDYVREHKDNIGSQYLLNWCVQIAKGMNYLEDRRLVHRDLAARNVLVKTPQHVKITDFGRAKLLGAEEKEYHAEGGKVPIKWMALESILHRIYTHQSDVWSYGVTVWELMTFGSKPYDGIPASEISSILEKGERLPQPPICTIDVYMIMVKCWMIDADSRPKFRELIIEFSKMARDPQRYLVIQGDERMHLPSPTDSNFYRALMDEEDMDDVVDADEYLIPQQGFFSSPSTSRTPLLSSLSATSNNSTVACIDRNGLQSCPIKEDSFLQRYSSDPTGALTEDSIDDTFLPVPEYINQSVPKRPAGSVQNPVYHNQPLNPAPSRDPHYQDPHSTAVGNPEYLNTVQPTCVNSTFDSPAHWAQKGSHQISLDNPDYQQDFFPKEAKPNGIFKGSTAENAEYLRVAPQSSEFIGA
# protocol-notes: EGFR target modulation in engineered NIH/3T3 cell lines (phospho-EGFR Y1068 AlphaLISA), EGFR L858R
# Assay type: cell-based
# protocol-conditions: engineered NIH/3T3 cells, read-out: NIH3T3 IC50 (μM) EGFR (L858R)
test-readout: log10 IC50 (log10 of the value in µM)
Recorded IC50 (log10, µM)

Below: 2 molecules and their reported log10 IC50.
{"columns": ["molecule", "measured-result"],
 "data": [
  ["C=CC(=O)N1CCCC[C@@H](n2c(NC(=O)c3cnnc(C)c3)nc3cc(CN4CCCC4)cc(C)c32)C1", -2.22],
  ["Cc1cc(C(=O)Nc2nc3cccc(Cl)c3n2[C@@H]2CCCCN(C(=O)/C=C/CN3CC[C@H](F)C3)C2)ccn1", -2.22]
]}

Consider the record given below.
With human EGFR L858R (NIH/3T3 cells) (Homo sapiens, UniProt P00533, L858R) as the test system, provide measured log10 IC50 for this molecule: Cc1cccc2nc(NC(=O)c3ccc4ccccc4c3)n(C3CCCCN(C(=O)/C=C/CN(C)C)C3)c12 (centres unmarked)
-2.30

====

# measured-on: human EGFR WT (NIH/3T3 cells, EGF-induced) (Homo sapiens, UniProt P00533)
# Sequence (P00533 25-1210): as the sequence (P00533 25-1210) above
# protocol-notes: EGFR target modulation in engineered NIH/3T3 cell lines (phospho-EGFR Y1068 AlphaLISA), EGFR WT
# Type: cell-based
# protocol-conditions: engineered NIH/3T3 cells, read-out: NIH3T3 IC50 (μM) EGFR (WT)
Listed here: items and their measured IC50.
Express it in µM; write the number only.

Study these solved cases before continuing.
{"columns": ["molecule", "measure-unit", "IC50"],
 "data": [
  ["C=CC(=O)N1CCCC[C@@H](n2c(NC(=O)c3cccc(C(F)(F)F)c3)nc3cccc(C)c32)C1 (single isomer, unassigned)", "µM", 0.239],
  ["C=CC(=O)N1CCCC[C@@H](n2c(NC(=O)c3ccnc(C)c3)nc3cc(CN4CCS(=O)(=O)CC4)cc(C)c32)C1", "µM", 0.065],
  ["Cc1ccc(C(=O)Nc2nc3cccc(C)c3n2C2CCCCN(C(=O)/C=C/CN(C)C)C2)cn1 (centres unmarked)", "µM", 0.052],
  ["Cc1cccc2nc(NC(=O)c3ccncn3)n(C3CCCCN(C(=O)/C=C/CN(C)C)C3)c12 (centres unmarked)", "µM", 1.65],
  ["Cc1nccc(C(=O)Nc2nc3cccc(C)c3n2C2CCCCN(C(=O)/C=C/CN(C)C)C2)n1 (centres unmarked)", "µM", 0.56],
  ["Cc1cccc2nc(NC(=O)c3ccnc(OC(F)F)c3)n([C@@H]3CCCCN(C(=O)/C=C/CN(C)C)C3)c12", "µM", 0.019],
  ["Cc1cccc2nc(NC(=O)c3cccnc3)n(C3CCCCN(C(=O)/C=C/CN(C)C)C3)c12 (centres unmarked)", "µM", 0.149],
  ["C=CC(=O)N1CCCC(n2c(NC(=O)c3cccc(C(F)(F)F)c3)nc3c2CN(S(C)(=O)=O)CC3)C1 (centres unmarked)", "µM", 9.9],
  ["C=CC(=O)N1CCC[C@@H](n2c(NC(=O)c3cccc(C(F)(F)F)c3)nc3cc(CN4CCCC4)ccc32)C1", "µM", 6.4],
  ["C=CC(=O)N1CCCC[C@@H](n2c(NC(=O)c3ccccc3)nc3cccc(CN(C)CCS(C)(=O)=O)c32)C1", "µM", 1.29]
]}

Retrieve IC50 measured for Cc1cccc2nc(NC(=O)c3ccnc(-c4ccccc4)c3)n([C@@H]3CCCCN(C(=O)/C=C/CN(C)C)C3)c12 and print it.
0.004

Identify the reported IC50 for the following entry. Cc1ncc(C(=O)Nc2nc3cccc(C)c3n2C2CCCCN(C(=O)/C=C/CN(C)C)C2)s1 (single isomer, unassigned) [Example 21-8A]
0.98

Consider the molecule Cc1cc(C(=O)Nc2nc3cccc(Cl)c3n2[C@@H]2CCCCN(C(=O)/C=C/CN3CC[C@@H](F)C3)C2)ccn1 and give its recorded IC50.
0.235
